Entry source: paper PMC5614685

Target: ActRIIA-Fc (UniProt P27037)
Sequence (P27037 20-135): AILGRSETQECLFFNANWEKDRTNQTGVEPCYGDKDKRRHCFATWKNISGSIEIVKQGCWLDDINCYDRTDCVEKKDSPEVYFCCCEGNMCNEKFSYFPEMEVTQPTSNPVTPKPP
Assay: SPR
Bridge positions count the residues as written; N and C are the ends. Ends that are not written are not given here.
# pKd annotations
Friendly reminder that pKd comes from taking -log10 of the concentration in mol/L.

Fill blank: measured pKd of the binder PFQCTRARDGWYYCTKS-OH (disulfide 4-14 (inferred)) [AR8] is ____.
4.74

Now take the following binder into account.
Fill blank: measured pKd of the binder VCFGTSVRRICV-OH (disulfide 2-11 (inferred)) [AR2mini] is ____.
4.72
